Numbers sourced from paper PMC5818740.

# targetOrTestSystem: PICK PDZ-BAR construct
# Sequence (chain, as listed by the source): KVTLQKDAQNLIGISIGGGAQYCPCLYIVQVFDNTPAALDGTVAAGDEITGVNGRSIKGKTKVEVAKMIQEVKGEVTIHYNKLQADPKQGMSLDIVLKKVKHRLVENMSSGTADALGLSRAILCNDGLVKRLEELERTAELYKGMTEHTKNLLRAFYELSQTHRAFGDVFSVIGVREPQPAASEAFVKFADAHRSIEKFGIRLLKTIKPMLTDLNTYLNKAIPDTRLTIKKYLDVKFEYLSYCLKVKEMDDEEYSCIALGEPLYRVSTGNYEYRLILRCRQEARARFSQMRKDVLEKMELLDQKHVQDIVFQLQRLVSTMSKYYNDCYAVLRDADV
# measurementNotes: FP
Ends that are not written are not given here.
measuredParameter: IC50
State the value, then name its unit.

Qu. What value of IC50 has been reported for the following binder? VYGIESVKI-OH [GluR2 peptide (competitor in the fluorescence polarization assay)]
Ans. 15.3 µM
